Molecular target: PDE4A1 (Mus musculus, UniProt O89084)
Construct: targets used in the assays are full-length proteins (as opposed to simply the catalytic domain); expressed in transfected cells; host or cells: Schizosaccharomyces pombe, PDE gene integrated in place of cgs2
Sequence (O89084 1-610 isoform O89084-2): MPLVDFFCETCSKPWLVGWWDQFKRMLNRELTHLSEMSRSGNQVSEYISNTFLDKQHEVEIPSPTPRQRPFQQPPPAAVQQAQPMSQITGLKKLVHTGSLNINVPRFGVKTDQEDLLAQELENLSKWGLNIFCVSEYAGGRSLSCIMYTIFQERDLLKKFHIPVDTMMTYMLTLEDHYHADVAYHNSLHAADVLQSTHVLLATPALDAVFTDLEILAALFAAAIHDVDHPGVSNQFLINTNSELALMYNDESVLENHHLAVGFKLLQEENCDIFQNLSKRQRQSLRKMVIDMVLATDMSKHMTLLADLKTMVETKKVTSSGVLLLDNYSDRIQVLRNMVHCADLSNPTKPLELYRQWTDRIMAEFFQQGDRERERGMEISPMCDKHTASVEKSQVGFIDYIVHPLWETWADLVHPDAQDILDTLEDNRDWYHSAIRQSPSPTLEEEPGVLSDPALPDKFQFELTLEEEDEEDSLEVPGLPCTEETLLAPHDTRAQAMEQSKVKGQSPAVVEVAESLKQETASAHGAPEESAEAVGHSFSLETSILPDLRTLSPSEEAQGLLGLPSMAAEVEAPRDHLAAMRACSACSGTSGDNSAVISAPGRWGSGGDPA
Test: 5FOA growth assay (high throughput screen, ED50) in fission yeast strain expressing PDE4A1
Type: cell-based
Conditions: high throughput 5FOA growth screen; greater than 8.53 = statistically-significant inhibitor
Please go through the items and note down their Composite Z score, PDE4A1.
Just the number.

Field request: Composite Z score, PDE4A1 | item: Cc1c(C(=O)NCc2ccccn2)sc2ncnc(N3CCc4ccccc4C3)c12
11.945

Field request: Composite Z score, PDE4A1 | item: COc1ccc(NC(=O)c2sc3nc(C)nc(N(C)c4ccc(C(C)C)cc4)c3c2C)c(OC)c1
5.2983

Field request: Composite Z score, PDE4A1 | item: Cc1c(C(=O)Nc2ccc3c(c2)OCO3)sc2ncnc(N3CCc4ccccc4C3)c12
3.9976

Field request: Composite Z score, PDE4A1 | item: CCN(CC)c1ncnc2sc3c(c12)CCC(C#N)(c1ccccc1)C3 (stereo not shown)
20.429

---

Biological target: PDE7B (Rattus norvegicus)
Construct: endogenous in cells; host or cells: rat pulmonary endothelial cells (extract)
Sequence (A0A0G2JXU0 1-446): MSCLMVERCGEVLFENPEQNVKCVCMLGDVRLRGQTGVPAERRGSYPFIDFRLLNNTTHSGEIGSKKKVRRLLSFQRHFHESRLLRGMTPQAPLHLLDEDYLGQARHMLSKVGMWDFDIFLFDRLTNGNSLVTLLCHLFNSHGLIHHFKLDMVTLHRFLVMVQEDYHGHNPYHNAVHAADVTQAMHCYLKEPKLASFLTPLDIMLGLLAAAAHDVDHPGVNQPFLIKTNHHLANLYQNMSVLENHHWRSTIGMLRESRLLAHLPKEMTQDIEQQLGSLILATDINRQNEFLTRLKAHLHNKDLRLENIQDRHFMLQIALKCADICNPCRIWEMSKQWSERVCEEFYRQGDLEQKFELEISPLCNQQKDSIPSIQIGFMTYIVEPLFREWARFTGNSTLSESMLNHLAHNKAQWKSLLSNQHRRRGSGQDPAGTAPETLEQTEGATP
Assay: in vitro enzyme assay of PDE7B activity in extracts from rat pulmonary endothelial cells
Type: biochemical
Conditions: KI on PDE7 (PDE7B) from rat pulmonary endothelial cells, cell extracts
pKi: −log10 of the molar value.
value_type: pKi

Field request: pKi | item: CN(C)c1ccc(/C=C/C=C2/C(=O)NC(=O)N(c3ccccc3)C2=O)cc1
~6.70

---

Please go through the items and note down their 1 Assay (20 uM) 4B3.
Biological target: PDE4B3 (Mus musculus, UniProt Q8VBU5)
Construct: targets used in the assays are full-length proteins (as opposed to simply the catalytic domain); expressed in transfected cells; host or cells: Schizosaccharomyces pombe, PDE gene integrated in place of cgs2
Sequence (Q8VBU5 1-721): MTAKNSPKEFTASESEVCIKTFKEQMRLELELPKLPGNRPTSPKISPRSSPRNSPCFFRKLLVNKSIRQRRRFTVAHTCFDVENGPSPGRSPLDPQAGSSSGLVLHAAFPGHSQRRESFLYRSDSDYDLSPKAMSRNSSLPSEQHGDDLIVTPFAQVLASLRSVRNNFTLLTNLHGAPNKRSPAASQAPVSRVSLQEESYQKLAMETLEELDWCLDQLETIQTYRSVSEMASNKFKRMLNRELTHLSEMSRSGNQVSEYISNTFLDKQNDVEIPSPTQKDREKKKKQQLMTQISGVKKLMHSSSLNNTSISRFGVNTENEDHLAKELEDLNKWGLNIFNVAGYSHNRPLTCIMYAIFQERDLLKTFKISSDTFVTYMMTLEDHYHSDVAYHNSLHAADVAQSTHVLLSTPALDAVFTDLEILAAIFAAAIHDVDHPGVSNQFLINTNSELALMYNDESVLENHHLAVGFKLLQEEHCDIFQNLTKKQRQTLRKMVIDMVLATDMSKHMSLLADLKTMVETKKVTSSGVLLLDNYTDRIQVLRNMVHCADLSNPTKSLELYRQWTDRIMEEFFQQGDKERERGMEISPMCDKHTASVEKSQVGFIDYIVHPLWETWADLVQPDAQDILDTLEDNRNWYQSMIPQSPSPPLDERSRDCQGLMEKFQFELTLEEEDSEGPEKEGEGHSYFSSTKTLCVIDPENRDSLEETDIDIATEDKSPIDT
Assay: 5FOA growth assay in fission yeast strain expressing PDE4B3
Format: cell-based, Murine
Conditions: 20 uM
State just the number; it will be interpreted in ND ND ND ND.

Field request: 1 Assay (20 uM) 4B3 | item: N#Cc1sc2sc(C#N)c(-c3ccc(Cl)cc3)c2c1N
1.462

Field request: 1 Assay (20 uM) 4B3 | item: CCOC(=O)c1sc2sc(C(=O)OCC)c(-c3ccc(Cl)cc3)c2c1N
1.8421

Field request: 1 Assay (20 uM) 4B3 | item: N#Cc1sc2sc(C#N)c(-c3cccs3)c2c1N
−0.3999

Field request: 1 Assay (20 uM) 4B3 | item: COC(=O)C1=C(C)N(c2ccccc2)/C(=C/c2cccs2)C1=O
−0.61

Field request: 1 Assay (20 uM) 4B3 | item: N#Cc1sc(C(N)=O)c(-c2ccco2)c1-c1ccco1
1.8244

Field request: 1 Assay (20 uM) 4B3 | item: COC(=O)c1sc(SC)c(C#N)c1-c1ccco1
21.4955

Field request: 1 Assay (20 uM) 4B3 | item: COC(=O)C1=C(C)N(c2ccc(C(C)C)cc2)C(=O)/C1=C\c1ccco1
−2.99
